Listed next: entries and their corresponding Percent Effect.
Tested on: Wolbachia pipientis
Assay: Anti-Wolbachia Cell-Based Screen
Assay type: functional
Set-up: scale not given: in the data most compounds retested in dose-response had high values
Conditions: 5 µM
In all, about 48,000 compounds went through this assay and about 13,000 (27%) showed an effect of 50% or more. Some of the results follow.
Give the quantity in %, number only.

# lookup: Percent Effect of Cn1cc(-c2nc(C(=O)N3CCCC3Cn3cccn3)cs2)cn1 (configuration not stated) 119.5

Request: O=C(c1csc(-c2cccs2)n1)N1CCCC1Cn1cccn1 (configuration not stated) 4.192

Another compound: COc1ccccc1C(=O)NCC(c1cccn1C)N1CCOCC1 (configuration not stated) 102.1
